# Tested on: PC-3 prostate
# Protocol Description: NCI tumour cell line growth inhibition, 48 h
Reported TGI values are given for each entry in this list.
Form entry: value (µM) — number only.

Tested on PC-3 prostate, the item O=C1c2cccnc2-c2nc(/C=C/c3ccccc3)cc3c2c1nc1ccccc13 showed TGI equal to 13.6

Known value: PC-3 prostate TGI of the compound CCOC(=O)/C=C1\SC(=Nc2ccc(C#N)cc2)N(CCN2C(=O)/C(=C/C(=O)OCC)SC2=Nc2ccc(C#N)cc2)C1=O equals 13.4

----------
# Test system: MDA-MB-231 breast
# Protocol Description: NCI tumour cell line growth inhibition, 48 h
Metric Name: log10(TGI) (log10 of the value in µM)
Kindly note that the scale is log10 and the underlying TGI is in µM.

Example results:
INSERT INTO results (compound, experimental_system, reported) VALUES
  ('C=C(CNCCc1ccc(O)cc1)[C@@H]1CC[C@]2(CO)CC[C@]3(C)[C@H](CC[C@@H]4[C@@]5(C)CCC(=O)C(C)(C)[C@@H]5CC[C@]43C)[C@@H]12', 'MDA-MB-231 breast', 0.51),
  ('COc1ccc(C2NCCc3c2[nH]c2ccccc32)cc1CN1CCN(c2ccc(F)cc2)CC1 (configuration not stated)', 'MDA-MB-231 breast', 0.53),
  ('CC(CN)[C@@H]1CC[C@]2(CO)CC[C@]3(C)[C@H](CC[C@@H]4[C@@]5(C)CCC(NCCO)C(C)(C)[C@@H]5CC[C@]43C)[C@@H]12 (some centres not stated)', 'MDA-MB-231 breast', 0.46);

Record summary for CCC(=O)OC1CCn2c1nc1c2C(=O)C(C)=C(N2CC2)C1=O (configuration not stated) : reported log10(TGI) = 0.52

Consider COC(=O)NCCc1[nH]nc2c1C(=O)C=C(OC)C2=O . Its measured log10(TGI) is 1.48

// COC(=O)[C@]12CC[C@@H](C)[C@H](C)[C@@H]1C1=CC[C@@H]3[C@@]4(C)C(C=O)=C[C@@](C)(COC(C)=O)[C@@H]4[C@H](O)C[C@@]3(C)[C@]1(C)CC2 : log10(TGI) value = 0.73

GET /value?item= N#C/C(=C\c1ccc(Br)cc1)n1nnc2cccc(F)c21 &field=log10(TGI) returns 0.54

----------
A collection of compounds and their measured GI50
# System: NCI-H522 lung
# Protocol Description: NCI tumour cell line growth inhibition, 48 h

Use the examples below as a reference point.
INSERT INTO assay_data (compound, metric_name, reported) VALUES
  ('Nc1c(C(=O)c2cccc(OCCN3CCOCC3)c2)cnn1-c1ccc(F)cc1', 'GI50', '> 25 µM'),
  ('O=c1cccc(C#Cc2ccccc2)o1', 'GI50', '4.06 µM'),
  ('COc1ccc(-c2cnc(-c3ccc(F)cc3)[nH]2)cc1', 'GI50', '20.5 µM'),
  ('C=C(CNCCc1ccc(O)cc1)[C@@H]1CC[C@]2(CO)CC[C@]3(C)[C@H](CC[C@@H]4[C@@]5(C)CCC(=O)C(C)(C)[C@@H]5CC[C@]43C)[C@@H]12', 'GI50', '1.69 µM'),
  ('N#CC1C(=N)Cc2ccccc2-c2ccccc21 (stereo not given)', 'GI50', '5.72 µM');

// field: GI50; key: COc1ccc2nc(NCCCNCCO)c3sc4ccc(F)cc4c(=O)c3c2c1 ; value = 1.77 µM

// sample Cc1ccc(S(=O)(=O)Oc2ccc3c4c(c(=O)oc3c2)CCCCC4)cc1 , its GI50 was > 100 µM

GI50 reading for N#C/C(=C/C=C(\Cl)c1ccc(Cl)cc1)C(N)=O : > 22.7 µM

The compound listed as COc1ccc2cc(C(=O)/C=C/c3cccc(Cl)c3Cl)ccc2c1 shows GI50 equal to 0.614 µM

compound O=S(=O)(NC(=S)Nc1ccccc1)c1ccc(N2N=C3c4ccccc4CC3C2c2cccs2)cc1 (stereo not given) , GI50 observed: 32.8 µM

----------
# Tested on: SK-OV-3 ovarian
# Protocol Description: NCI tumour cell line growth inhibition, 48 h
Metric Name: TGI

INSERT INTO measurements (compound, metric_name, reported) VALUES
  ('C(CCc1nnc2c(n1)CCCC2)Cc1nnc2c(n1)CCCC2', 'TGI', '> 100 µM');

Item OCCCSc1ccccc1SCCCO was tested on SK-OV-3 ovarian; the reported TGI is > 100 µM

The compound COc1cc(-c2oc3c(OC)c(OC)cc(O)c3c(=O)c2OC)ccc1O , tested on SK-OV-3 ovarian, showed TGI of 14.3 µM

----------
# System: BT-549 breast
# Protocol Description: NCI tumour cell line growth inhibition, 48 h; in the data active means GI50 below about 0.43 µM; inactive means the rest
Tick one outcome: label 1 (active), label 0 (inactive)

Worked cases, answers included:
INSERT INTO assay_data (compound, experimental_system, class) VALUES
  ('C=C(CNCCc1ccc(O)cc1)[C@@H]1CC[C@]2(CO)CC[C@]3(C)[C@H](CC[C@@H]4[C@@]5(C)CCC(=O)C(C)(C)[C@@H]5CC[C@]43C)[C@@H]12', 'BT-549 breast', 'label 0'),
  ('O=C(Nc1cnn2ccc(N3CCC[C@@H]3c3cc(F)ccc3F)nc12)N1CC[C@H](O)C1', 'BT-549 breast', 'label 0'),
  ('O=C(Oc1ccc([N+](=O)[O-])cc1)N1CCN(Cc2cccc(Oc3ccccc3)c2)CC1', 'BT-549 breast', 'label 0'),
  ('Cc1cc(S(=O)(=O)Nc2nc3ccsc3c(=O)n2Cc2ccco2)c(S)cc1Cl', 'BT-549 breast', 'label 0'),
  ('O=C1c2cccnc2-c2nc(/C=C/c3ccccc3)cc3c2c1nc1ccccc13', 'BT-549 breast', 'label 0');

Kindly provide the recorded test outcome for the following compound: Cc1ccc(S(=O)(=O)Oc2ccc3c4c(c(=O)oc3c2)CCCCC4)cc1
label 0

Hi team, can someone confirm the assay call for O=S(=O)(NC(=S)Nc1ccccc1)c1ccc(N2N=C3c4ccccc4CC3C2c2cccs2)cc1 (stereo unspecified) ?
label 0

----------
# Test system: SW-620 colon
# Protocol Description: NCI tumour cell line growth inhibition, 48 h; in the data active = GI50 below about 0.43 µM; inactive = the rest
In this exercise, the only acceptable responses are active, inactive

Example results:
INSERT INTO measurements (molecule, class) VALUES
  ('COc1ccc2cc(C(=O)/C=C/c3cccc(Cl)c3Cl)ccc2c1', 'inactive'),
  ('Nc1ccc(C#Cc2cncnc2Nc2ccc(OCc3cccc(F)c3)c(Cl)c2)cc1', 'inactive');

What call does the record list for CCC(=O)OC1CCn2c1nc1c2C(=O)C(C)=C(N2CC2)C1=O (centres undefined) ?
active

Dear colleague, could you share the recorded outcome for COC(=O)c1c2c(c(C)[n+]([O-])c1C)C(=O)C=C(NCc1cccc(OC)c1)C2=O when you have a moment?
active

Returns: the outcome recorded for COc1cc2c3c(n(CCN)c(=O)c2cc1OC)-c1cc2c(cc1C3=O)OCO2 in this assay.
active

How did this test come out for CC[N+](CC)=c1ccc2nc3c(cc(NCc4ccccc4)c4ccccc43)oc-2c1 ?
active

Recorded call for C=C1C(=O)O[C@H]2[C@H]1CC/C(COC(=O)C(=O)c1c[nH]c3ccc(OC)cc13)=C\CC[C@@]1(C)O[C@@H]21 ?
inactive

----------
Listed below: TGI values for each entry.
# Tested on: SNB-75 CNS
# Protocol Description: NCI tumour cell line growth inhibition, 48 h
// units = µM; emit number, no label

INSERT INTO measurements (compound, experimental_system, reported) VALUES
  ('CC[C@@]1(O)C(=O)OCc2c1cc1n(c2=O)Cc2cc3cc(OC)ccc3nc2-1', 'SNB-75 CNS', 0.0491),
  ('N#CC1C(=N)Cc2ccccc2-c2ccccc21 (centres undefined)', 'SNB-75 CNS', 9.81),
  ('Cc1cc(C)c2c(n1)S(=O)(=O)N(CCCN1CCN(c3cccc(C(F)(F)F)c3)CC1)/C(=C(\O)c1ccccc1)C2=O', 'SNB-75 CNS', 19.2),
  ('CN1CCN(CC(=O)Nc2ccc3ncnc(Nc4ccc(Oc5cccc(C(F)(F)F)c5)c(Cl)c4)c3c2)CC1', 'SNB-75 CNS', 2.67);

TGI for COc1ccc(-c2cc(-c3ccc(Nc4ccnc5cc(C(F)(F)F)ccc45)cc3)[nH]c(=O)c2C#N)c2ccccc12 is 29.9

So, CCSc1nc2sc(C)c(C)c2c(=O)n1-c1ccc(C(=O)O)cc1 ? Its TGI was 70

----------
# System: SK-MEL-5 melanoma
# Protocol Description: NCI tumour cell line growth inhibition, 48 h
Metric Name: GI50

// known answers, use as guide
INSERT INTO results (molecule, experimental_system, reported) VALUES
  ('Nc1nc2ccc([C@@H]3Nc4ccc5[nH]ncc5c4[C@H]4[C@H]5CCC(C5)[C@H]43)cc2s1', 'SK-MEL-5 melanoma', '1.66 µM'),
  ('CN1CCN(c2ccc(-c3cnc4c(-c5csc6ccccc56)cnn4c3)cc2)CC1', 'SK-MEL-5 melanoma', '2.48 µM'),
  ('N#CC1C(=N)Cc2ccccc2-c2ccccc21 (stereo not given)', 'SK-MEL-5 melanoma', '3.35 µM'),
  ('COc1ccc(-c2cnc(-c3ccc(F)cc3)[nH]2)cc1', 'SK-MEL-5 melanoma', '7.81 µM');

Pending molecule:
// sample COc1ncc(-c2nc3c(n2C(C)C)[C@H](c2ccc(Cl)cc2)N(c2cc(Cl)cn(C)c2=O)C3=O)c(OC)n1 , its GI50 was 11.7 µM

The measured values listed here are drawn from PubChem BioAssay (NCI).
